# system: Glutamate NMDA receptor
# experimentDescription: Displacement of [3H]CGP-39653 from NMDA receptor in rat brain cortical membranes
pKi: −log10 of the molar value.
readoutKind: pKi

compound | readoutKind | valuePrefix | result
N[C@@]1(C(=O)O)C[C@H]1CC(=O)O (relative stereo) | pKi | = | 4.14
N[C@@]1(C(=O)O)C[C@@H]1CC(=O)O (relative stereo) | pKi | = | 4.11
N[C@@H](CCc1nsnc1O)C(=O)O | pKi | < | 4.00
N[C@]1(C(=O)O)C[C@H]1Cc1nsnc1O (relative stereo) | pKi | = | 4.72
N[C@H](CCc1nsnc1O)C(=O)O | pKi | < | 4.00

====

# system: G-protein coupled receptor family C group 6 member A (Mus musculus)
# Sequence (Q8K4Z6 whole entry): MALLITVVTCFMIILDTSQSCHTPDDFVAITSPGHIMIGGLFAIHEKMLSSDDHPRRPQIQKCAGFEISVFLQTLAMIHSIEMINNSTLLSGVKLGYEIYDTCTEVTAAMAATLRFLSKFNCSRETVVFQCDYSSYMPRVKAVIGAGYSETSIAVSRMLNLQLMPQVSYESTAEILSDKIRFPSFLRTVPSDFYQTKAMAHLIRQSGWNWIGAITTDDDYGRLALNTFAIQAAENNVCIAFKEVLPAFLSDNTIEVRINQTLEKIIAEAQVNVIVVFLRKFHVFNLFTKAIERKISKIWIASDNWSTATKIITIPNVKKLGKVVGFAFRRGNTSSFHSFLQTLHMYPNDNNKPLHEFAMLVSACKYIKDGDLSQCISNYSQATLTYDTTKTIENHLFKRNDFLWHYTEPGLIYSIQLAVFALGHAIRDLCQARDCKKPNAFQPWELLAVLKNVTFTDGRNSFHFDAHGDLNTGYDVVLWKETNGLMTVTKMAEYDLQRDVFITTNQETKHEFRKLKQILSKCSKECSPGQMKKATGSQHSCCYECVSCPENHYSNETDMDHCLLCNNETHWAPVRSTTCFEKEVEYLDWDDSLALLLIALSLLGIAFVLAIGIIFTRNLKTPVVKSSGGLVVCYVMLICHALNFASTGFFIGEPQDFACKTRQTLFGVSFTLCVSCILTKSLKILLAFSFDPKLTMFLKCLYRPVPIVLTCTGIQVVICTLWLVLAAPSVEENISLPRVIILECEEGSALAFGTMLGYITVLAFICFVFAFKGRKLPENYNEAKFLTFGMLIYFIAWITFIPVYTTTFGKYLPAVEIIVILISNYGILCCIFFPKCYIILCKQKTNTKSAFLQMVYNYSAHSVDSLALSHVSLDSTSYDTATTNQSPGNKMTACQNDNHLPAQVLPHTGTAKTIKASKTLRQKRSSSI
# experimentDescription: Agonist activity at mouse GPRC6A expressed in human tsA201 cells coexpressing GalphaqG66D after 30 mins by inositol phosphate turnover assay
pEC50: −log10 of the molar value.

moleculeSmiles | pEC50
N=C(N)NCCC[C@H](N)C(=O)O | 3.55

====

# system: Metabotropic glutamate receptor 7 (Homo sapiens)
# Sequence (Q14831 whole entry): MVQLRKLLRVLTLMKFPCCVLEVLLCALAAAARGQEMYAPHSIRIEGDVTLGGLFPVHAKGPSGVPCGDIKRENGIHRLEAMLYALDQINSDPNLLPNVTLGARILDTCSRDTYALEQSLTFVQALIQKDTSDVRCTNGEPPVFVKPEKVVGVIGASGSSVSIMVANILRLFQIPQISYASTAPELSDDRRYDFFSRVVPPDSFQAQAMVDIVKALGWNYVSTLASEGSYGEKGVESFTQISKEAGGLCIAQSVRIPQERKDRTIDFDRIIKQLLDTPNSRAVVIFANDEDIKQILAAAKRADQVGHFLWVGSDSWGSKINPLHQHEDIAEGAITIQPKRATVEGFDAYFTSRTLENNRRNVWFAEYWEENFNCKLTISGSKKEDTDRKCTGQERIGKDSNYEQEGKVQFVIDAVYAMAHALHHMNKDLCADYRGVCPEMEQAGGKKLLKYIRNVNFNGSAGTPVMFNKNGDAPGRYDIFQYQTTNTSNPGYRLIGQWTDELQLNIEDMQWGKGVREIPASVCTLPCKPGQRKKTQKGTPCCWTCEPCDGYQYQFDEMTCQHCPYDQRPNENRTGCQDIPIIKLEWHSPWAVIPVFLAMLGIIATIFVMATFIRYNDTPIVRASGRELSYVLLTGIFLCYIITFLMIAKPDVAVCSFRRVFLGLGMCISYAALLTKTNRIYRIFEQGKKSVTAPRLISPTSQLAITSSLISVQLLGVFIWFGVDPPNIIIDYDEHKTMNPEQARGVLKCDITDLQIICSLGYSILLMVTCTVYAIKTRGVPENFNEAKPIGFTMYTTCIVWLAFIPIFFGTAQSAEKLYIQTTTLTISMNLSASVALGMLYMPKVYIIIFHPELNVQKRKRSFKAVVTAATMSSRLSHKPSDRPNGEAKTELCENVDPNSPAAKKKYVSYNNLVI
# experimentDescription: Agonist activity at human mGluR7 receptor expressed in HEK cells

compound | EC50 (mM)
N[C@@H](CCC(=O)O)C(=O)O [GLUTAMIC ACID] | 1.18

====

# system: Metabotropic glutamate receptor 3 (Homo sapiens, UniProt Q14832)
# Sequence (Q14832 whole entry): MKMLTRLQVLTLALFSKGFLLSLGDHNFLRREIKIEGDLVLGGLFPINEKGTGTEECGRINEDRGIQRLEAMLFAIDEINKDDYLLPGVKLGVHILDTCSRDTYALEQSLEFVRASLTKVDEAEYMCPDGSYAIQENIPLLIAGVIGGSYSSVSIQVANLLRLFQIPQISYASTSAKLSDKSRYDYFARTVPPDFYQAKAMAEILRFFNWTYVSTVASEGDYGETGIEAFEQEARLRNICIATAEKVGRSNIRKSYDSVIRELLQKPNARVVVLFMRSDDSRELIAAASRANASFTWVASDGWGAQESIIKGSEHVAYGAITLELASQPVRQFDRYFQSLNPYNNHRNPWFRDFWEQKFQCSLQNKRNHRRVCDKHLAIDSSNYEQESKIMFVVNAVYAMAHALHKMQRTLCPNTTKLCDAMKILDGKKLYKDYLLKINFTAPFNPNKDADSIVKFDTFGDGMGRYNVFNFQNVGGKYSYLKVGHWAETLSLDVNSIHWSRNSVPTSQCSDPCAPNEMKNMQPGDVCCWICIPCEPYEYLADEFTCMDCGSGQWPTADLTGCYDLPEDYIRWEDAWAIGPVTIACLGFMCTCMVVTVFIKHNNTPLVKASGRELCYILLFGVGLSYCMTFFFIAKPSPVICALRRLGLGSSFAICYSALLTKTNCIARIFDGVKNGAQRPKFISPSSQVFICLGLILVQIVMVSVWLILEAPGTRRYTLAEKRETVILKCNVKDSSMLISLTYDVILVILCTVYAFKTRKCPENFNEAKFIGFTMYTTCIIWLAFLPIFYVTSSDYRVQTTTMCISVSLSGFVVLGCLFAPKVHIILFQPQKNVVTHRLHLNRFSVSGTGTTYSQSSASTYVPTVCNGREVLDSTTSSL
# experimentDescription: Agonist activity at human mGluR3 receptor expressed in HEK cells
pEC50: −log10 of the molar value.
Overview of recorded pEC50 for various molecules

molecule | valuePrefix | pEC50
N[C@@H](CCC(=O)O)C(=O)O | = | 7.22
N[C@@]1(C(=O)O)C[C@@H]1CC(=O)O (relative stereo) | = | 3.70
N[C@@]1(C(=O)O)C[C@H]1CC(=O)O (relative stereo) | < | 3.00

====

# system: Metabotropic glutamate receptor 3 (Homo sapiens, UniProt Q14832)
pKi: −log10 of the molar value.
readoutKind: pKi

molecule | result
N[C@@]1(C(=O)O)C[C@@H]1CC(=O)O (relative stereo) | 3.70
